# measurement target: Delta-type opioid receptor (Homo sapiens, UniProt P41143)
# Sequence (P41143 whole entry): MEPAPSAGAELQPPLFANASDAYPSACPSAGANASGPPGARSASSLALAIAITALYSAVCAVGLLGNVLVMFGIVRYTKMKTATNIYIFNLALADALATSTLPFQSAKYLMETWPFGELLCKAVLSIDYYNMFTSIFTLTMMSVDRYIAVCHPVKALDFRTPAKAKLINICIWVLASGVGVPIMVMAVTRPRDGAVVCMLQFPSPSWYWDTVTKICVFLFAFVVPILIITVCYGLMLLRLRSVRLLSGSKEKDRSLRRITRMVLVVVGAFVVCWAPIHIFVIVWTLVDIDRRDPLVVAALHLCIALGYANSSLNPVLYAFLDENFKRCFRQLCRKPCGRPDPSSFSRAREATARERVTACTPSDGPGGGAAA
# assay procedure: Displacement of [3H]-DADLE from human recombinant DOR receptor expressed in stable HEK cells after 90 mins by microbeta scintillation counting method
pKi: −log10 of the molar value.
Below, each entry is listed alongside its reported pKi.

molecule	test result
C[C@@]12CN(c3ccccc3)c3ccccc3[C@@H]1CCN2 (racemic)	< 5.00
CC[C@H]1c2cc(OC)ccc2CC[C@@]1(C)N (racemic)	< 5.00
CC[C@H]1c2cc(C)ccc2OC[C@@]1(C)N (racemic)	< 5.00

Report value only: pKi, Delta-type opioid receptor (Homo sapiens, UniProt P41143), COc1cc(OC)c2c(c1)OC[C@@]1(C)NCC[C@@H]21 (racemic) < 5.00

Report value only: pKi, Delta-type opioid receptor (Homo sapiens, UniProt P41143), CC[C@H]1c2ccccc2N(c2ccccc2)C[C@@]1(C)N (racemic) < 5.00

====

Below, each entry is listed alongside its reported pKi.
# measurement target: Muscarinic acetylcholine receptor M2 (Homo sapiens)
# Sequence (P08172 whole entry): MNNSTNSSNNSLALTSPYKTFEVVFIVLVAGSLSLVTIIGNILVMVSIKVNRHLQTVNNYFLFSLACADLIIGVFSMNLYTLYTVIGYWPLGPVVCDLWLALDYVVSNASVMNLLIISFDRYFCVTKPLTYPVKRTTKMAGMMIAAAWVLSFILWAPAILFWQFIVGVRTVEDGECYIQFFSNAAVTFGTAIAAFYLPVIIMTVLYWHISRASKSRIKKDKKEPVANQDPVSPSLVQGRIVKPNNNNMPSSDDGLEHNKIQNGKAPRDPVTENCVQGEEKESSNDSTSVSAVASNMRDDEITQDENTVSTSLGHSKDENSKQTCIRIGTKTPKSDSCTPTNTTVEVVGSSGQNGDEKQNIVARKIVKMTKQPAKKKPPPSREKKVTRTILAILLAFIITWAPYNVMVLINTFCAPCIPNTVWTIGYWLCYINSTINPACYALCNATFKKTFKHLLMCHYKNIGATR
# assay procedure: Displacement of [3H]-QNB/[3H]-NMS from human recombinant Muscarinic acetylcholine M2 receptor expressed in stable CHO cells after 90 mins by microbeta scintillation counting method
pKi: −log10 of the molar value.

Recall and state the measured pKi for CC[C@H]1c2cc(OC)ccc2CC[C@@]1(C)N (racemic) . < 5.00

Recall and state the measured pKi for CC[C@H]1c2cc(C)ccc2OC[C@@]1(C)N (racemic) . < 5.00

Recall and state the measured pKi for C[C@@]12CN(c3ccccc3)c3ccccc3[C@@H]1CCN2 (racemic) . < 5.00

Recall and state the measured pKi for CC[C@H]1c2ccccc2N(c2ccccc2)C[C@@]1(C)N (racemic) . < 5.00

Recall and state the measured pKi for COc1cc(OC)c2c(c1)OC[C@@]1(C)NCC[C@@H]21 (racemic) . < 5.00

====

Below, each entry is listed alongside its reported pKi.
# measurement target: 5-hydroxytryptamine receptor 5A (Homo sapiens)
# Sequence (P47898 whole entry): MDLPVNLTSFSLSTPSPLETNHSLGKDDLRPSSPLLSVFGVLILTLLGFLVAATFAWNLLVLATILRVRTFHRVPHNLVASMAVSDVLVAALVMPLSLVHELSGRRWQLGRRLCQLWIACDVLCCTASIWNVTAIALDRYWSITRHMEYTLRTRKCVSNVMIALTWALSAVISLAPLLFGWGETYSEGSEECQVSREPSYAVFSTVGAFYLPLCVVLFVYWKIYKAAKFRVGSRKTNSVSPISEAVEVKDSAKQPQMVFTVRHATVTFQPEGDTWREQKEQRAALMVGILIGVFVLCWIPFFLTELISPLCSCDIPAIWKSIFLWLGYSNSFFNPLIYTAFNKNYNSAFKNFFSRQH
# assay procedure: Displacement of [3H]-LSD from human recombinant 5-HT5A receptor expressed in Flp-In CHO cells after 90 mins by microbeta scintillation counting method
pKi: −log10 of the molar value.

Example molecules with recorded pKi:
molecule	parameter	test result
CC[C@H]1c2cc(OC)ccc2CC[C@@]1(C)N (racemic)	pKi	5.70
CC[C@H]1c2cc(C)ccc2OC[C@@]1(C)N (racemic)	pKi	< 5.00

Attention now shifts to the item below.
Recall and state the measured pKi for CC[C@H]1c2ccccc2N(c2ccccc2)C[C@@]1(C)N (racemic) . < 5.00

====

# measurement target: Beta-2 adrenergic receptor (Homo sapiens, UniProt P07550)
# Sequence (P07550 whole entry): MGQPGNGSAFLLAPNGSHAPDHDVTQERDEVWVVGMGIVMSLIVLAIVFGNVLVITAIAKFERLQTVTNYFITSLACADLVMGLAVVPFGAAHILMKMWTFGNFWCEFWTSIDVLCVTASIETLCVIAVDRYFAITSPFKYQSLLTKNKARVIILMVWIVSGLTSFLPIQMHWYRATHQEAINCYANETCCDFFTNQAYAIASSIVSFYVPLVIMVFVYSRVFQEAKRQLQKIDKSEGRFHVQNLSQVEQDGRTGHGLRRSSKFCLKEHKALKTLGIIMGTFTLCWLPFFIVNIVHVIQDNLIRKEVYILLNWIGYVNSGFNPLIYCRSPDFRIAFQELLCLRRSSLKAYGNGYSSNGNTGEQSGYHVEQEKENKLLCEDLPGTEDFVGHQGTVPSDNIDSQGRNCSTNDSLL
# assay procedure: Displacement of [3H]-CGP12177 from human recombinant adrenergic Beta2 receptor expressed in Flp-In HEK cells after 90 mins by microbeta scintillation counting method
pKi: −log10 of the molar value.
parameter: pKi

Example compounds with recorded pKi:
compound	measurement target	pKi
C[C@@]12CN(c3ccccc3)c3ccccc3[C@@H]1CCN2 (racemic)	Beta-2 adrenergic receptor (Homo sapiens, UniProt P07550)	< 5.00
CC[C@H]1c2ccccc2N(c2ccccc2)C[C@@]1(C)N (racemic)	Beta-2 adrenergic receptor (Homo sapiens, UniProt P07550)	< 5.00

Attention now shifts to the item below.
Recall and state the measured pKi for CC[C@H]1c2cc(C)ccc2OC[C@@]1(C)N (racemic) . < 5.00

====

Below, each entry is listed alongside its reported pKi.
# measurement target: Alpha-2B adrenergic receptor (Homo sapiens, UniProt P18089)
# Sequence (P18089 whole entry): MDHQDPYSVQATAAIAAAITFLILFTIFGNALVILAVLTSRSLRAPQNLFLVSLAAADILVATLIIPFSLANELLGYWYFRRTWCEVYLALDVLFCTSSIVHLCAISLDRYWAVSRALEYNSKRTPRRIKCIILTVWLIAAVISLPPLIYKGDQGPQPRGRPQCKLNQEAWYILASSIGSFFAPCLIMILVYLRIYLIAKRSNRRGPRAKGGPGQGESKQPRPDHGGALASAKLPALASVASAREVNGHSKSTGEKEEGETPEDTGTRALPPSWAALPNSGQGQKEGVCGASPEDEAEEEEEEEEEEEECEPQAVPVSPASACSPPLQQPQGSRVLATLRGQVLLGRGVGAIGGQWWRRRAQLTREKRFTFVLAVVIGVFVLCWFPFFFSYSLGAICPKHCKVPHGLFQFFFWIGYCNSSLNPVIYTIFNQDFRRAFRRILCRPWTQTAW
# assay procedure: Displacement of [3H]-Rauwolscine from human recombinant adrenergic Alpha2B receptor expressed in HEKT cells after 90 mins by microbeta scintillation counting method
pKi: −log10 of the molar value.

Example compounds with recorded pKi:
compound	test result
CC[C@H]1c2cc(C)ccc2OC[C@@]1(C)N (racemic)	< 5.00
COc1cc(OC)c2c(c1)OC[C@@]1(C)NCC[C@@H]21 (racemic)	< 5.00

Attention now shifts to the item below.
Recall and state the measured pKi for C[C@@]12CN(c3ccccc3)c3ccccc3[C@@H]1CCN2 (racemic) . < 5.00

====

# measurement target: Sodium-dependent dopamine transporter (Homo sapiens, UniProt Q01959)
# Sequence (Q01959 whole entry): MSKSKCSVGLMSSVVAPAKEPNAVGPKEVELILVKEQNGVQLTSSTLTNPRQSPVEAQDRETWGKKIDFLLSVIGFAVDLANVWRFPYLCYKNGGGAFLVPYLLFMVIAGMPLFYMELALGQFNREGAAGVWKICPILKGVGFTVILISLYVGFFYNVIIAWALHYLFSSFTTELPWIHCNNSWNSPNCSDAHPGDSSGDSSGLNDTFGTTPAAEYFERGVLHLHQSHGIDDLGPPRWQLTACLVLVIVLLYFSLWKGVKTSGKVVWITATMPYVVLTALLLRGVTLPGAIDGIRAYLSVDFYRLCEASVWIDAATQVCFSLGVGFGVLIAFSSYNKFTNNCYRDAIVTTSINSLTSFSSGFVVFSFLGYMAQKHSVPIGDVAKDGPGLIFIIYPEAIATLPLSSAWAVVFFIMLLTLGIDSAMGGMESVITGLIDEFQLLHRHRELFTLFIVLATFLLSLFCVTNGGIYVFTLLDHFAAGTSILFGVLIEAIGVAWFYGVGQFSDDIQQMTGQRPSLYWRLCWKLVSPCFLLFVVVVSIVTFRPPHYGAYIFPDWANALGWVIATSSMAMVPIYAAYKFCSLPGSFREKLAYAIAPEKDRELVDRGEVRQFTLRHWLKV
# assay procedure: Displacement of [3H]-Win35428 from human recombinant DAT receptor expressed in stable HEK cells after 90 mins by microbeta scintillation counting method
pKi: −log10 of the molar value.
Below, each entry is listed alongside its reported pKi.

molecule	test result
C[C@@]12CN(c3ccccc3)c3ccccc3[C@@H]1CCN2 (racemic)	< 5.00
CC[C@H]1c2cc(C)ccc2OC[C@@]1(C)N (racemic)	< 5.00

Attention now shifts to the item below.
Recall and state the measured pKi for COc1cc(OC)c2c(c1)OC[C@@]1(C)NCC[C@@H]21 (racemic) . < 5.00
